Reported values of Test H rating (% disease control) for individual entries
Test system: Puccinia recondita f. sp. tritici
Assay: Test H: wheat leaf rust, curative spray on inoculated wheat seedlings, visual disease rating
Details: wheat leaf rust, curative; 100 = 100% disease control, 0 = no control relative to controls
recorded-metric: Test H rating (% disease control) (%)

{"compound": "Cc1nn(C)c(Nc2ncc(F)cc2F)c1-c1ccccc1C(F)(F)F [compound 280]", "numeric-result": 8}
{"compound": "Cc1nn(C)c(Nc2ccc(C#N)cc2F)c1-c1ccc(F)cc1F [compound 246]", "numeric-result": 0}
{"compound": "COc1cc(F)c(-c2c(C)nn(C)c2Oc2ccc(Br)c(OC)c2)c(F)c1 [compound 212]", "numeric-result": 0}
{"compound": "Cc1nn(C)c(Nc2ccc(F)c(C#N)c2)c1-c1ccc(F)cc1Cl [compound 234]", "numeric-result": 0}
{"compound": "Cc1nn(C)c(Nc2c(F)cc(F)cc2F)c1-c1ccccc1Br [compound 248]", "numeric-result": 0}
{"compound": "Cc1nn(C)c(Oc2c(F)cc(C#N)cc2F)c1-c1cccc(Cl)c1Cl [compound 273]", "numeric-result": 0}
{"compound": "Cc1nn(C)c(Nc2ccc(F)cc2F)c1-c1cccc(F)c1F [compound 202]", "numeric-result": 0}
{"compound": "COc1ccc(-c2c(C)nn(C)c2Nc2ccc(Cl)cc2Cl)c(Cl)c1 [compound 282]", "numeric-result": 0}
{"compound": "Cc1nn(C)c(Nc2cnc(Cl)nc2)c1-c1ccc(F)cc1Cl [compound 268]", "numeric-result": 0}
{"compound": "COc1cc(Oc2c(-c3c(F)cc(F)cc3F)c(C)nn2C)ccc1C [compound 217]", "numeric-result": 40}
{"compound": "COc1ccc(Cl)c(Nc2c(-c3ccc(F)cc3F)c(C)nn2C)c1 [compound 227]", "numeric-result": 0}
{"compound": "Cc1nn(C)c(Nc2c(F)ccc(F)c2F)c1-c1ccc(F)cc1Cl [compound 171]", "numeric-result": 68}
{"compound": "COc1cc(Cl)c(Nc2c(-c3ccc(F)cc3Cl)c(C)nn2C)c(Cl)c1 [compound 296]", "numeric-result": 0}
{"compound": "Cc1nn(C)c(Nc2ccc(F)cc2F)c1-c1ccccc1C(F)(F)F [compound 238]", "numeric-result": 53}
{"compound": "COc1cc(F)c(-c2c(C)nn(C)c2Oc2ccc(Cl)c(OC)c2)c(F)c1 [compound 211]", "numeric-result": 0}
{"compound": "COc1ccc(F)c(-c2c(C)nn(C)c2Oc2c(F)cc(C#N)cc2F)c1 [compound 278]", "numeric-result": 0}
{"compound": "Cc1nn(C)c(Oc2ccc(Cl)c(C#N)c2)c1-c1c(F)cc(F)cc1F [compound 224]", "numeric-result": 17}
{"compound": "COc1ccc(-c2c(C)nn(C)c2Nc2c(F)cccc2F)c(Cl)c1 [compound 161]", "numeric-result": 95}
{"compound": "Cc1nn(C)c(Nc2ccc(F)cc2F)c1-c1c(F)cccc1F [compound 178]", "numeric-result": 0}
{"compound": "COc1ccc(F)c(Nc2c(-c3ccc(F)cc3F)c(C)nn2C)c1 [compound 244]", "numeric-result": 0}
{"compound": "Cc1nn(C)c(Nc2ccc(Cl)cc2Cl)c1-c1c(F)cccc1Cl [compound 283]", "numeric-result": 9}
{"compound": "Cc1nn(C)c(Nc2cc(Cl)ccc2Cl)c1-c1ccc(F)cc1F [compound 245]", "numeric-result": 0}
{"compound": "COc1cc(F)c(-c2c(C)nn(C)c2Oc2ccc(Cl)c(C#N)c2)c(F)c1 [compound 218]", "numeric-result": 17}
{"compound": "Cc1nn(C)c(Nc2c(F)cc(F)cc2F)c1-c1ccccc1C(F)(F)F [compound 239]", "numeric-result": 0}
{"compound": "Cc1nn(C)c(Nc2cc(F)ccc2F)c1-c1ccc(F)cc1F [compound 226]", "numeric-result": 28}
{"compound": "Cc1nn(C)c(Nc2cccc(F)c2F)c1-c1c(F)cccc1F [compound 198]", "numeric-result": 0}
{"compound": "COc1cc(F)c(-c2c(C)nn(C)c2Oc2ccc(Br)c(F)c2)c(F)c1 [compound 153]", "numeric-result": 0}
{"compound": "Cc1nn(C)c(Nc2c(F)cc(C#N)cc2F)c1-c1c(F)cccc1Cl [compound 192]", "numeric-result": 0}
{"compound": "Cc1cccc(Oc2c(-c3c(F)cc(F)cc3F)c(C)nn2C)c1 [compound 219]", "numeric-result": 17}
{"compound": "Cc1nn(C)c(Nc2ccc(F)cc2)c1-c1ccccc1C(F)(F)F [compound 237]", "numeric-result": 0}
{"compound": "Cc1nn(C)c(Nc2ccc(C#N)cc2F)c1-c1c(F)cccc1F [compound 196]", "numeric-result": 9}
{"compound": "COc1cc(F)c(-c2c(C)nn(C)c2Oc2ccc(Br)c(C)c2)c(F)c1 [compound 186]", "numeric-result": 0}
{"compound": "COc1ccc(Nc2c(-c3c(F)cccc3F)c(C)nn2C)c(Cl)c1 [compound 201]", "numeric-result": 18}
{"compound": "COc1ccc(-c2c(C)nn(C)c2Nc2c(F)ccc(F)c2F)c(Cl)c1 [compound 174]", "numeric-result": 0}
{"compound": "COc1ccc(F)c(Nc2c(-c3c(F)cccc3F)c(C)nn2C)c1 [compound 216]", "numeric-result": 0}
{"compound": "COc1cccc(Oc2c(-c3c(F)cc(OC)cc3F)c(C)nn2C)c1 [compound 221]", "numeric-result": 17}
